experiment-summary: plasma exposure in 14-day rat study
Type: in vivo
condition-parameters: 10 mg/kg/day oral, read-out: day-last mean plasma AUC0-24
quantity-measured: AUC(0-t)

Inquiry: Can you look up the measured AUC(0-t) of N#Cc1cccc(-c2ccc3ncc(-c4cc(F)cc(F)c4)c(N4CCC(N)CC4)c3c2)c1O [paltusotine] for me?
Reply text: 975 ng·h/mL

* * *

experiment-summary: Phase 1 hepatic impairment study, plasma PK after single oral 20 mg tablet
Format: in vivo, human
condition-parameters: both sexes, human, plasma, oral, 20 mg, mild hepatic impairment; read-out: AUC(0-inf), Mean ± SD
quantity-measured: AUC(0-inf) (ng·h/mL)
Output spec: scalar in ng·h/mL, unitless text.

Inquiry: Can you look up the measured AUC(0-inf) of "N#Cc1cccc(-c2ccc3ncc(-c4cc(F)cc(F)c4)c(N4CCC(N)CC4)c3c2)c1O" for me?
Reply text: 1880
